Assay: yeast display, Sf9 membrane polyspecificity reagent, FACS + sequencing; frameworks hold sequencing errors
Readout name: polyreactivity (PSR sort gate)

- Seq text: "QVQLVESGGGLVQAGGSLRLSCAASGSIFVPNDMGWYRQAPGKEREFVAAITESDGSTYNADSVKGRFTISRDNAKNTVYLQMNSLKPEDTAVYYCATDSTGVTIVHFDYWGQGTQVTVSS"
  polyreactivity (PSR sort gate): "low polyreactivity"
- Seq text: "QVQLVESGGGLVQAGGSLRLSCAASGFILLDNAMGWYRQAPGKEREFVASINISGDRTFYADSVKGRFTISRDNAKNTDYLQMNSLKPEDTAVYYCNALPSEPMVYWGQGTQVTVSS"
  polyreactivity (PSR sort gate): "low polyreactivity"
- Seq text: "QVQLVESGGGLVQAGGSLRLSCAASGFIFVANAMGWYRQAPGKEREFFAAISSSGGRTYYADSVKGRFTISRDNAKNTVYLQMNSLKPEDTAVYYCAKDRVFSRRGFGYWGQGTQVTVSS"
  polyreactivity (PSR sort gate): "low polyreactivity"
- Seq text: "QVQLVESGGGLVQAGGSLRLSCAASGLIFADYVMGWYRQAPGKERELVATINQGGGSTYYADSVKGRFTISRDNAKNTVYLQMNSLIPEDTAVYYCAATWALLYAIFESYDYWGQGTQVTVSS"
  polyreactivity (PSR sort gate): "low polyreactivity"
- Seq text: "QVQLEESGGCLVQAGGRIRLSCAASGLTFHRYAMGWYRQAPGKERELVAAINYSGGRTYYADSVKGRFTISRDNATNNVYLQMNSLKPEDTAVYYCAAPSASGYYWGQGNQVTVSS"
  polyreactivity (PSR sort gate): "high polyreactivity"

Please supply polyreactivity (PSR sort gate) for each of the following items, keeping them in order.
1. QVQLVESGGGLVQAGGSLRLRCAASGRTFSSNAMGWYRQAPGKERELVASISRRGGSTYYADSVKGRFTISRDNAKNSVYVQMNSLKPEDTAVYDCAARQSGQILGYYSRYDYWGQGTQVTVSS
2. QVQLVESGGGLVQAGGSLRLSCAASGRIFGVYAMGWYRQAPGKERELVADISWSGSGTYADSVKGRFTISRDNAKNTVYLQMNSLKPEDTAVYYCNVDPAQIHSGYVGYDYWGQGTQVTVSS
3. QVQHVESGGGLDQAGGSLRLSCAASGSIYVGNEMGWSRQATGKETELVDTISWSGGSTYYADSVKGRFTISRDNAKNTVYLQMNSLKPEDTAVYYCAKTPYRRYRYGGYNYRTYDYWGQGTQVTVSS

Out:
high polyreactivity
low polyreactivity
low polyreactivity

Hi, could you look up polyreactivity (PSR sort gate) for each item in my list?
1. QFQLVESGGGLVQAGGSLRLSCAASGLIFRIYAMGWYRQAPGKEREFVAAIRWRGGSTYYADSVKGRFTISRDNAKYTVYLQMNSLKPEDTAVYYCAVRSCPYRPRLDYWGQGTQVTVSS
2. QVQLVESGGGLVQAGGSLRLSCAATGSTFIDNARGWYRQAPGKERELVAAINSSGGNTYYADSVKGRFTISRDNAKNTVYLQMNSLKPEDTAVYYCNAEFSVLYFYDYEYWGQGTQVTVSS
3. QVQLVDSGGGLVQAGGSLRLSCAASRNAMGWYRQAPGKERELVGAISFRGGSTYYADSVKGRFTISRDNAKNTVYLQMNSLKPEDTAVYYCAKVQHHDYEGRGFPDAADGYWGQGTQVTVSS

Out:
1: high polyreactivity; 2: low polyreactivity; 3: low polyreactivity
